Each entry below lists one item and its recorded normalized RNA/DNA level without ligand (log10) value.
B1: library; a variant is named by its letters at N, in order (parent)
chain: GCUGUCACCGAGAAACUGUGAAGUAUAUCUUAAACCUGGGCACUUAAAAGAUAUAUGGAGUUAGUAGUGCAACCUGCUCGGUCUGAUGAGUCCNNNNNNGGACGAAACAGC

# Variants of: B1
# PROTOCOL_NOTES: normalized RNA/DNA level without ligand (relative to sTRSVctl = 100) (log10 (% of sTRSVctl)); HEK293T; ligand: cyclic di-GMP (c-di-GMP-II aptamer); higher = less ribozyme self-cleavage, higher mRNA level
# COND: reporter: mCherry (pCS4076), ligand present: no
Number, no unit, nothing else.

Item `UUCCUC` has what recorded normalized RNA/DNA level without ligand (log10)?
1.78

Item `ACGCUG` has what recorded normalized RNA/DNA level without ligand (log10)?
1.62

Item `GCAUCA` has what recorded normalized RNA/DNA level without ligand (log10)?
1.61

Item `UCGGGG` has what recorded normalized RNA/DNA level without ligand (log10)?
1.69

Item `CUAUAU` has what recorded normalized RNA/DNA level without ligand (log10)?
1.64

Others:
Item `UGAAAC` has what recorded normalized RNA/DNA level without ligand (log10)?
1.7

Item `UGGUCG` has what recorded normalized RNA/DNA level without ligand (log10)?
1.77

Item `UGAGGG` has what recorded normalized RNA/DNA level without ligand (log10)?
1.63

Item `CUGGGC` has what recorded normalized RNA/DNA level without ligand (log10)?
1.73

Item `CGGUGG` has what recorded normalized RNA/DNA level without ligand (log10)?
1.66

Item `CUACAA` has what recorded normalized RNA/DNA level without ligand (log10)?
1.48

Item `AGUGUU` has what recorded normalized RNA/DNA level without ligand (log10)?
1.62

Item `ACGUCA` has what recorded normalized RNA/DNA level without ligand (log10)?
1.61

Item `UGGCCC` has what recorded normalized RNA/DNA level without ligand (log10)?
1.88
